Sourced from patent US12435059B2

# testedOn: AMPKα1 (Homo sapiens (Human), UniProt Q13131)
# Sequence (Q13131 whole entry, looked up): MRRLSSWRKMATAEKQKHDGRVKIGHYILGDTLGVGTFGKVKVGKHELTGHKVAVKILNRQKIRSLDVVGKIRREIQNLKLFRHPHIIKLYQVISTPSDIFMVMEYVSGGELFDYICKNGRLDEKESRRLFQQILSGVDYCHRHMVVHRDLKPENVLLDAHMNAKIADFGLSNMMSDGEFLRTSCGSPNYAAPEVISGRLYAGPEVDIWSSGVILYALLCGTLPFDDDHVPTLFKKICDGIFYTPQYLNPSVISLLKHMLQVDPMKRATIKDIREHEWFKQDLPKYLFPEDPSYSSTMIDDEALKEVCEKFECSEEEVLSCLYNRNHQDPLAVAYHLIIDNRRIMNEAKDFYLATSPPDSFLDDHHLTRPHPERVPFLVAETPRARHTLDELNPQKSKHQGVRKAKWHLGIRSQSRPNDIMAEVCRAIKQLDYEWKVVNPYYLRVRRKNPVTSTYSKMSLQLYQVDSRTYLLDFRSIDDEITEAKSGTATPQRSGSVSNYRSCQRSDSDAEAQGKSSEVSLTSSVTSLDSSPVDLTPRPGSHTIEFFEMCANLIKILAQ
# Sequence (Q9Y478 whole entry partner, looked up): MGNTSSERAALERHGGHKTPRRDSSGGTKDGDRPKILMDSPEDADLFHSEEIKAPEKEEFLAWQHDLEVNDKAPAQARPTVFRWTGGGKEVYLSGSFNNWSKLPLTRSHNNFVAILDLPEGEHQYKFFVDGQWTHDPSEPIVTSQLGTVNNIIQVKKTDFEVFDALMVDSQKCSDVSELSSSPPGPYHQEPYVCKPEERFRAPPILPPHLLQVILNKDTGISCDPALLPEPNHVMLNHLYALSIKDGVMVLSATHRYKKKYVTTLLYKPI
# Sequence (P54619 whole entry partner, looked up): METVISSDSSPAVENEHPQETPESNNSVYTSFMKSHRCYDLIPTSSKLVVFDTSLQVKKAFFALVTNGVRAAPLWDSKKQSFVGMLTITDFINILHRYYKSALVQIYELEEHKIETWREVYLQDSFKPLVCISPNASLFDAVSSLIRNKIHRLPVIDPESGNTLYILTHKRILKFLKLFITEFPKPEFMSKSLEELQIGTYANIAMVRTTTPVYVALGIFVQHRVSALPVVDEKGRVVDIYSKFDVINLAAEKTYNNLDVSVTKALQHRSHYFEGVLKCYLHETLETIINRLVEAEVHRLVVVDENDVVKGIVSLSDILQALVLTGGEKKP
# testMethodNotes: LANCE Eu TR-FRET recombinant kinase assay, AMPK(α1)
# Type: biochemical
# conditionSet: mean±S.D. (n=3); ATP 8 μM; read-out: IC50 (nM) AMPK(α1)
# Experimental: Assays were performed at 25° C. in a reaction mixture consisting of 2.5 μL serially diluted inhibitor solution, 2.5 μL kinase, 2.5 μL ATP and 2.5 μL substrate. Reagents were incubated for 1 hr before the reaction was halted through the addition of EDTA (10 mM) after which Eu anti-phospho-CREB (Ser133) antibody (PerkinElmer) was added at a final concentration of 2 nM for 1 hr. […] (n=3)).
Rule: measured IC50 below 200 nM gets satisfied; anything equal to or greater than 200 nM gets not satisfied.

As a guide, the following entries are already answered.
CCN(CC)CCNC(=O)c1c(C)[nH]c(/C=C2\C(=O)Nc3ccc(C#N)cc32)c1C | satisfied
Cc1[nH]c(/C=C2\C(=O)Nc3ccc(F)cc32)c(C)c1C(=O)NCCCN(C)C | not satisfied
CCN(CC)CCNC(=O)c1c(C)[nH]c(/C=C2\C(=O)Nc3ccc(CCNC(C)=O)cc32)c1C | satisfied
Cc1[nH]c(/C=C2\C(=O)Nc3ccc(F)cc32)c(C)c1C(=O)NCCN(C)C | satisfied

Take the molecule CCN(CC)CCNC(=O)c1c(C)[nH]c(/C=C2\C(=O)Nc3ccc(CCN=[N+]=[N-])cc32)c1C and say whether its IC50 is less than 200 nM.
satisfied

Take the molecule CCN(CC)CCNC(=O)c1c(C)[nH]c(/C=C2\C(=O)Nc3cc(Cl)ccc32)c1C and say whether its IC50 is less than 200 nM.
not satisfied

Take the molecule CCN(CC)CCNC(=O)c1c(C)[nH]c(/C=C2\C(=O)Nc3ccc(CCC#N)cc32)c1C and say whether its IC50 is less than 200 nM.
satisfied

Take the molecule CCc1ccc2c(c1)NC(=O)/C2=C\c1[nH]c(C)c(C(=O)NCCN(CC)CC)c1C and say whether its IC50 is less than 200 nM.
not satisfied

Take the molecule CCN(CC)CCNC(=O)c1c(C)[nH]c(/C=C2\C(=O)Nc3ccc(CCOC(C)=O)cc32)c1C and say whether its IC50 is less than 200 nM.
not satisfied

Take the molecule CCN(CC)CCNC(=O)c1c(C)[nH]c(/C=C2\C(=O)Nc3cc(Br)ccc32)c1C and say whether its IC50 is less than 200 nM.
not satisfied

Take the molecule Cc1[nH]c(/C=C2\C(=O)Nc3ccc(F)cc32)c(C)c1C(=O)NCCN and say whether its IC50 is less than 200 nM.
not satisfied
